- Measured On: recombinant IL4I1 (Homo sapiens (Human), UniProt Q96RQ9)
- Sequence (Q96RQ9 22-567): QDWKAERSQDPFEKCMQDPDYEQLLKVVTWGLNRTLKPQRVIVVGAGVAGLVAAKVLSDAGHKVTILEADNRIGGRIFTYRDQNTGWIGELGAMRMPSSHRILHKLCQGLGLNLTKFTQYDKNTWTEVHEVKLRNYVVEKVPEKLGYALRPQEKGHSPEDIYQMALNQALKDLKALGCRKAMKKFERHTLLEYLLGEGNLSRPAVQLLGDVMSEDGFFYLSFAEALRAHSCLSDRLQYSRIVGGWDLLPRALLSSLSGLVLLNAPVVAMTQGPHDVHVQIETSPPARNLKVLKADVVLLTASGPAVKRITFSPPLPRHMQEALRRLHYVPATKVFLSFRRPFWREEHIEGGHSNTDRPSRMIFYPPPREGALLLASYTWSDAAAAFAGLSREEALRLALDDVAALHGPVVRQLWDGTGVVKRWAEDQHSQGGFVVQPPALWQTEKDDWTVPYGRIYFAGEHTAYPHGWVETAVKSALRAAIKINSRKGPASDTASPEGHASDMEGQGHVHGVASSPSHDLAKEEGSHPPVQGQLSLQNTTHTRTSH
- Protocol Details: IL4I1 Enzymatic Assay (Amplex Red/HRP coupled fluorescence detection of H2O2)
- Assay type: biochemical
- Cond: 240 min; recombinant IL4I1, four-hour pre-incubation with compound
# key: entry, value: EC50
Endpoint Label: EC50 (nM)

INSERT INTO assay_data (compound, value_measured) VALUES
  ('O=C1C(=O)N(C2CCCC2)CCN1Cc1ccc(-n2nccn2)nn1 [Example 322]', 28),
  ('O=C1C(=O)N(C2CC(F)C2)CCN1Cc1nnc(-c2ccccc2)s1 (centres unmarked) [Example 290]', 8),
  ('CC1(n2ccn(Cc3ccc(-c4ccccc4F)nn3)c(=O)c2=O)CC1 [Example 197]', 33),
  ('O=C1C(=O)N([C@H]2C[C@H]3C[C@H]3C2)CCN1Cc1ccc(-c2ccccc2F)nn1 [Example 51]', 8),
  ('O=C1C(=O)N(C23CC(F)(C2)C3)CCN1Cc1cc(-c2cccnc2)on1 [Example 256]', 533);

====

- Measured On: recombinant IL4I1 (Homo sapiens (Human), UniProt Q96RQ9)
- Protocol Details: IL4I1 Enzymatic Assay (Amplex Red/HRP coupled fluorescence detection of H2O2)
- Assay type: biochemical
- Cond: 240 min; recombinant IL4I1, four-hour pre-incubation with compound
- Description: Interleukin 4 inducible protein 1 (IL4I1) is an L-amino oxidase that catalyzes the oxidation of aromatic residues (Phe, Trp and Tyr): L-amino acid+H2O+O2→2-oxo acid+NH3+H2O2. […] In this assay, the hydrogen peroxide generated by IL4I1 is then detected through a coupled reaction with Amplex® Red (10-acetyl-3,7-dihydroxyphenoxazine) and horseradish peroxidase (HRP) to produce resorufin product that could be detected in the form of fluorescence signals. […]
EC50 strictly less than 80 nM = yes. Otherwise no.

INSERT INTO measurements (compound, measured_on, group_label) VALUES
  ('N#CC1(n2ccn(Cc3ccc(-n4nccn4)nn3)c(=O)c2=O)CC1 [Example 333]', 'recombinant IL4I1 (Homo sapiens (Human), UniProt Q96RQ9)', 'no'),
  ('O=c1c(=O)n(C2(CF)CC2)ccn1Cc1ccc(-n2nccn2)cn1 [Example 216]', 'recombinant IL4I1 (Homo sapiens (Human), UniProt Q96RQ9)', 'yes'),
  ('O=C1C(=O)N(C2CCCC2)CCN1CCc1nnc(-c2ccccc2)s1 [Example 350]', 'recombinant IL4I1 (Homo sapiens (Human), UniProt Q96RQ9)', 'yes'),
  ('O=C1C(=O)N(C2CCC2)CCN1Cc1ccc(-c2cncs2)nn1 [Example 395]', 'recombinant IL4I1 (Homo sapiens (Human), UniProt Q96RQ9)', 'yes'),
  ('COc1ccc(C2(N3CCN(Cc4nnc(-c5ccccc5)s4)C(=O)C3=O)CC2)nc1 [Example 297]', 'recombinant IL4I1 (Homo sapiens (Human), UniProt Q96RQ9)', 'no');

====

- Measured On: recombinant IL4I1 (Homo sapiens (Human))
- Protocol Details: IL4I1 Enzymatic Assay (Amplex Red/HRP coupled fluorescence detection of H2O2)
- Format: biochemical
- Cond: 240 min; recombinant IL4I1, four-hour pre-incubation with compound
# key: entry, value: EC50
Endpoint Label: EC50

INSERT INTO measurements (molecule, endpoint_label, value_measured) VALUES
  ('O=C1C(=O)N(C2CCCC2)CCN1Cc1ncc(-c2ccccc2)cc1F', 'EC50', '8 nM'),
  ('O=c1c(=O)n(C23CC(C2)C3)ccn1Cc1cc(-c2ccccn2)on1', 'EC50', '7 nM'),
  ('O=c1c(=O)n(C2CCCC2)ccn1Cc1ccc(-c2ccccc2F)nn1', 'EC50', '7 nM'),
  ('O=C1C(=O)N(C2CCC2)CCN1Cc1cnc(-c2ccccc2)nc1', 'EC50', '13 nM'),
  ('O=c1c(=O)n(C2CCC2)ccn1Cc1ccc(-c2ccccc2F)nn1', 'EC50', '3 nM'),
  ('O=C1C(=O)N(C2CCCC2)CCN1Cc1cc(-c2ccccc2F)on1', 'EC50', '10 nM'),
  ('O=C1C(=O)N([C@H]2C[C@H]3C[C@H]3C2)CCN1Cc1ccc(-c2nccs2)nn1', 'EC50', '8 nM'),
  ('O=C1C(=O)N(C23CC(C2)C3)CCN1Cc1ccc(-c2cccc(F)c2)nn1', 'EC50', '4 nM'),
  ('CC1CN(C2CCC2)C(=O)C(=O)N1Cc1nnc(-c2ccccc2)s1 (stereo not drawn) [Example 357]', 'EC50', '32 nM'),
  ('O=c1c(=O)n(C2CCC2)ccn1Cc1cc(-c2ccccc2)on1', 'EC50', '1 nM'),
  ('O=C1C(=O)N([C@H]2C[C@@H](c3ccccc3)C2)CCN1Cc1ccc(-c2ccccc2)nc1 [Example 266A]', 'EC50', '4 nM'),
  ('O=C1C(=O)N(C2CCC2)CCN1Cc1cnc(-c2ccccc2F)s1', 'EC50', '6 nM'),
  ('O=C1C(=O)N(C2CC(c3ccccc3)C2)CCN1Cc1ccc(-c2ccccc2)nc1 (stereo not drawn)', 'EC50', '3 nM'),
  ('O=C1C(=O)N(C2CCC2)CCN1Cc1cnc(-c2ccccc2)cn1', 'EC50', '7 nM'),
  ('O=c1c(=O)n(C2CCCC2)ccn1Cc1ccc(-n2ccnn2)nn1', 'EC50', '7 nM'),
  ('CC(C)(C)CN1CCN(Cc2ncc(-c3ccccc3)cn2)C(=O)C1=O', 'EC50', '34 nM'),
  ('O=c1c(=O)n(C23CC(C2)C3)ccn1Cc1ccc(-c2cccc(F)c2)nn1', 'EC50', '4 nM'),
  ('N#CC1(n2ccn(Cc3ccc(-c4nccs4)nn3)c(=O)c2=O)CC1', 'EC50', '78 nM');
